- ASSAY_TEXT: clinical
- CONDITION_SET: human, in vivo, CL/fm, bootstrap median

MOLECULE	clearance / mL/min
N#C[C@@]1(c2ccc3c(N)ncnn23)O[C@H](CO)[C@@H](O)[C@H]1O [GS-441524]	267

---

- ASSAY_TEXT: clinical
- CONDITION_SET: human, in vivo, CL, bootstrap median
MEASURED_METRIC: clearance (mL/min)

MOLECULE	RECORDED_RESULT
CCC(CC)COC(=O)[C@H](C)N[P@](=O)(OC[C@H]1O[C@@](C#N)(c2ccc3c(N)ncnn23)[C@H](O)[C@@H]1O)Oc1ccccc1 [Remdesivir, reference compound]	1670
